Procedure summary: Human serum protein binding
Type: in vitro ADME
Applied conditions: human, serum
Reported endpoint: fraction unbound at 22 h
// response body must contain only the number

Query: fraction unbound at 22 h lookup needed for CC(/C=C/C(C)=C/[C@@H]1Cc2nc(cs2)[C@@H](C)C[C@@H](N)CC(=O)O[C@@H](C)C/C(C)=C/C=C\C(=O)O1)=C\CN(C)C [PatA (1), Pateamine A, reference compound] , thanks.
Reply: 0.026
